// data source = the supplement of paper PMC10567573

B1: ZNF263 (parent)
chain: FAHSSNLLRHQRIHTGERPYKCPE

variants of: B1; assay: protein stability index of a GFP-peptide fusion (GPS, HEK-293T) (PSI 1-6); higher = more stable; conditions: c terminus: a fixed tail appended;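 note: lentivirally expressed fusions sorted by FACS into six bins by GFP to DsRed ratio, PSI derived from sequencing read proportions per bin multiplied by bin number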
observable: protein stability index
Give bare numbers.

Answered cases to consult:
entry_sequence="FAHSSNLLRHQHIHTGERPYKCPE [R12H]" reported_value=3.01
entry_sequence="FAHSSNLLQHQRIHTGERPYKCPE [R9Q]" reported_value=2.87
entry_sequence="FAHSSNLLRHQRIHTGEWPYKCPE [R18W]" reported_value=2.66
entry_sequence="FAHSSNLIRHQRIHTGERPYKCPE [L8I]" reported_value=2.71
entry_sequence="FKHSSNLLRHQRIHTGERPYKCPE [A2K]" reported_value=3.08

List the reported protein stability index of each variant below.
1. FAHSSQLLRHQRIHTGERPYKCPE [N6Q]
2. FAFSSNLLRHQRIHTGERPYKCPE [H3F]
3. FAHSSNLLRHQRIHTGERPYKCPY [E24Y]
4. FPHSSNLLRHQRIHTGERPYKCPE [A2P]
5. FAHSSNLYRHQRIHTGERPYKCPE [L8Y]

Data returned:
[2.49, 1.89, 2.28, 2.67, 2.78]
